- Tested on: Bacillus subtilis DB104 (SP-AmyQ fusion secretion)
- Assay Text: AmyQ secretion efficiency, weighted average sort bin (1 = best secretion, 10 = worst) (bin number (weighted average, 1-10)); higher = lower secretion efficiency
Entries are sorted into classes by AmyQ secretion efficiency as follows: bucket 1 = under 3, bucket 2 = from 3 up to 6, bucket 3 = 6 and over

In: Any idea which band MKTKTLFIFSAILTLSIRKPNRTFAQTA is in?
Out: bucket 3

In: Any idea which band MTKKRRRAWFLPLVCVLLISGWLAPAASASAQTT is in?
Out: bucket 1

In: Any idea which band MKKLVLCVSILAVILSGVALTDED is in?
Out: bucket 3

In: Any idea which band MILKSKLLLSCLALSTVFVATTIANAPTH is in?
Out: bucket 3

In: Any idea which band MTKKYWQSPYYCRLLISGWLAPAASASAQTT is in?
Out: bucket 3

In: Any idea which band MRNLTKTSLLLAGLCTAAQMVFVTHASAASK is in?
Out: bucket 1

In: Any idea which band MKKWMAGLFLAAAVLLCLMVPQQKQGASS is in?
Out: bucket 2

In: Any idea which band MMIKQCVICLSLLVFGTTAAHSEET is in?
Out: bucket 2

In: Any idea which band MKRIRIPMTLALGAALTIAPLSFASNEEN is in?
Out: bucket 3

In: Any idea which band MKKALTLCPAIVGSLLFFTAPASAHVS is in?
Out: bucket 1

In: Any idea which band MAIIIAIIAAVIVIAALITFNVRNKSPG is in?
Out: bucket 3

In: Any idea which band MKRLTLVCSIVFILFILFYDLKIGTDEASAKTA is in?
Out: bucket 2

In: Any idea which band MLKKIALTLCPAIVGSLLFFTAPASSHVS is in?
Out: bucket 2

In: Any idea which band MRFTKVVGFLSVLGVFPLTAQAEKA is in?
Out: bucket 2

In: Any idea which band MKRQKQKASLVLFAVVFVFAVKGAPAKAETH is in?
Out: bucket 1

In: Any idea which band MKKWIYVVLVLSIAGIGGFSYHAASS is in?
Out: bucket 3

In: Any idea which band MKKWMASTSFSMGLFLAAAVLLCLMVPQQIQGASS is in?
Out: bucket 2

In: Any idea which band MKKKIVAGLAVSAVVQDDPSAAPAEAKTI is in?
Out: bucket 3

In: Any idea which band MKIRKIRRRKALSFGMLISAVPALAAGT is in?
Out: bucket 2

In: Any idea which band MKLWMRKTLVVLFTIVTFGLVSPPALMADKP is in?
Out: bucket 1

In: Any idea which band MKKRKKKVSSLFISSAVLLSILLPSGQAHAQSA is in?
Out: bucket 1

In: Any idea which band MKKGIIRFLLVSFVLFFALSTGITGVQFAPA is in?
Out: bucket 3

In: Any idea which band MRKKRVITCVMAASPAGYASAKED is in?
Out: bucket 3

In: Any idea which band MIFTIVVGFLSVLGLAAVFPLTAQAEKA is in?
Out: bucket 1

In: Any idea which band MRKNRILALFVLSLGLLSFMVTPVSAKRK is in?
Out: bucket 1

In: Any idea which band MKKTIMSFVAVAALSTTAFVLSSFGAHASAKEI is in?
Out: bucket 2

In: Any idea which band MKKAAAVLLSLGLVFGFSYGAGHVQEAKTK is in?
Out: bucket 3

In: Any idea which band MKLSVKIAGVLTVAAAAMTAKMYQTAKGN is in?
Out: bucket 3

In: Any idea which band MKNMSCKLVVSVTLFFSFLTIGPLAHNQNS is in?
Out: bucket 2

In: Any idea which band MFNRLFRVCFLAALIMAFTLPNSTYAQKP is in?
Out: bucket 1
